tgt: human GLP-1 receptor (Homo sapiens, UniProt P43220)
Construct: host or cells: CHO-K1
Sequence (P43220 24-463): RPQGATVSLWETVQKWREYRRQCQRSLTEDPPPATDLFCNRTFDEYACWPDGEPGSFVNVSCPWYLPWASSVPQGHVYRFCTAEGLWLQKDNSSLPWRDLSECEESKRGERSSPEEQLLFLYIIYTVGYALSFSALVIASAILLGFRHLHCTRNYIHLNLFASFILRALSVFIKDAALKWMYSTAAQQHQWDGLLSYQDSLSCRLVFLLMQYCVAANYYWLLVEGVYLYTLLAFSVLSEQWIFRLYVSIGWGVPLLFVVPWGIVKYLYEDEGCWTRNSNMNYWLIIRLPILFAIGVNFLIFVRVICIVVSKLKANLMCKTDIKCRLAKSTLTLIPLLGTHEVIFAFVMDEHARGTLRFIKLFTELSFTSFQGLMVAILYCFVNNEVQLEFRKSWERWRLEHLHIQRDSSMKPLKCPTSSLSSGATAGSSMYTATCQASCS
procedureSummary: cAMP activity test (cAMP dynamic HTRF kit) in CHO-K1/GLP-1 receptor-expressing cells
Assay type: cell-based
conditionContext: cAMP activity, CHO-K1/GLP-1 receptor-expressing cells; read-out: EC50
parameter: EC50 (nM)

Give recorded EC50. N#Cc1ccc(COc2cccc(-c3ccc(Cc4nc5ccc(C(=O)O)cc5n4Cc4ccco4)cc3)c2)c(F)c1 [Example 27]
270

Give recorded EC50. O=C(O)c1ccc2nc(Cc3ccc(-c4cccc(OCc5c(F)cccc5Cl)n4)c(F)c3)n(CC3CCCO3)c2c1 (stereo not shown) [Example 101]
320

Give recorded EC50. N#Cc1ccc(COc2cccc(-c3ccc(Cc4nc5ccc(C(=O)O)cc5n4CC4CCCO4)cc3F)n2)c(F)c1 (stereo not shown) [Example 130]
21

(P) O=C(O)c1ccc2nc(Cc3ccc(-c4cccc(OCc5nc6ccccc6s5)n4)c(F)c3)n(C[C@@H]3CCO3)c2c1 [Example 132]
(Q) N#Cc1ccc(COc2cccc(-c3ccc(Cc4nc5ccc(C(=O)O)cc5n4Cc4ccco4)c(F)c3)n2)c(F)c1 [Example 19]
Field: entry with larger EC50 (options P / Q ). Write the label of whichever entry you select.
P
(P: 460 nM, Q: 40 nM)

These entries and their values trace back to patent US12421205B2.
